# experimentalProtocol: Confirmatory laboratory extraction of a synthetic inhibitor/sugar mixture
# Assay type: physicochemical
# runConditions: 5 mL synthetic solution + 5 mL solvent, 20° C., HPLC
measurementName: laboratory extraction yield, Acetic acid

Please review the following examples before continuing.
CCCC(=O)OCC [ethyl butyrate]: 0.221^3
CC(=O)c1ccccc1 [Acetophenone]: 0.351^3
CCCCCCCCCCO [1-decanol]: 0.281^3
O=Cc1ccccc1 [benzaldehyde]: 0.301^3
CC(C)CC(O)CC(C)C [2,6-dimethyl-4-heptanol]: 0.301^3

### Prompt Could you tell me which laboratory extraction yield, Acetic acid is on file for CCCCC(CC)CO (stereo not shown) [2-ethyl-1-hexanol] ?
### Response 0.352^3

### Prompt Which laboratory extraction yield, Acetic acid value belongs to CCCCCCCCO [1-octanol] ?
### Response 0.361^3

### Prompt Request the reported laboratory extraction yield, Acetic acid associated with CCCCCCC(C)O (stereo not shown) [2-octanol]
### Response 0.397^3

### Prompt Reported laboratory extraction yield, Acetic acid for CCCCCCCCCCCCO [1-dodecanol] : what is it?
### Response 0.000^3

### Prompt Report laboratory extraction yield, Acetic acid for CCCCCCC(=O)CC [3-nonanone] please.
### Response 0.321^3
